Recorded values, source ChEMBL document CHEMBL5724796.

- TARGET OR SYSTEM: Aurora kinase A (Homo sapiens) (UniProt O14965)
- Sequence (whole entry): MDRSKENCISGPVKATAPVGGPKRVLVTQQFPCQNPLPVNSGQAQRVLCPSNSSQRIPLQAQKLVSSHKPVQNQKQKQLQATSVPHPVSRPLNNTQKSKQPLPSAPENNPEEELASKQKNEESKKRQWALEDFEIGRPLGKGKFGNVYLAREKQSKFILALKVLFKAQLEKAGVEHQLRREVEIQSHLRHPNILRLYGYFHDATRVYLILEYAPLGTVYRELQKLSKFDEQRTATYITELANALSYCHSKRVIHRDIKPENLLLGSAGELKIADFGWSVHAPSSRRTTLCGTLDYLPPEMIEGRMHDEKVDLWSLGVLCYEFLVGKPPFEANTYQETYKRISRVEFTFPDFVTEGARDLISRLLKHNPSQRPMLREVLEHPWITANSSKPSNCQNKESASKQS
- CONDITION: Compound concentration 20.0 uM
- Description: Thermal Shift Assay. Domain: start/stop: E122-S403
Readings of ΔTm for the listed molecules
PROPERTY LABEL: ΔTm (°C)

[
  {
    "MOLECULE": "CCOc1ccc(S(=O)(=O)Nc2ccc(Cl)cc2C#Cc2cnc(C(=O)O)cc2OC)c2ncccc12",
    "PROPERTY LABEL": "ΔTm",
    "RECORDED VALUE": -2.9
  },
  {
    "MOLECULE": "CN(C)CCCN(CC[C@H](N)C(=O)O)C[C@H]1O[C@@H](n2cnc3c(N)ncnc32)[C@H](O)[C@@H]1O",
    "PROPERTY LABEL": "ΔTm",
    "RECORDED VALUE": -0.74
  },
  {
    "MOLECULE": "CCN1C(C)(C)CC(Oc2ccc(C(=O)Nc3ccc(NC(=O)Nc4cc(C(C)(C)C)on4)cc3)nc2)CC1(C)C",
    "PROPERTY LABEL": "ΔTm",
    "RECORDED VALUE": 0.68
  },
  {
    "MOLECULE": "CC(=O)N1CCN([C@H]2CCC[C@@H](NC(=O)c3cc4c(F)ccc(C)c4[nH]3)C2)CC1",
    "PROPERTY LABEL": "ΔTm",
    "RECORDED VALUE": -0.09
  },
  {
    "MOLECULE": "Cc1cc(C)cc(Oc2ccc(CNC(=O)[C@H](C)N)cc2C)c1",
    "PROPERTY LABEL": "ΔTm",
    "RECORDED VALUE": -0.6
  },
  {
    "MOLECULE": "O=C(NO)c1cccc(C(=O)NCCc2ccccc2)c1",
    "PROPERTY LABEL": "ΔTm",
    "RECORDED VALUE": -0.23
  },
  {
    "MOLECULE": "CCNC(=O)NCCSC[C@H]1O[C@@H](n2cnc3c(N)ncnc32)[C@H](O)[C@@H]1O",
    "PROPERTY LABEL": "ΔTm",
    "RECORDED VALUE": -0.19
  },
  {
    "MOLECULE": "O=C(O)Cc1ccc(Cc2cc(-c3cccc(Cl)c3)nc(C(F)(F)F)c2)cc1",
    "PROPERTY LABEL": "ΔTm",
    "RECORDED VALUE": -2.1
  },
  {
    "MOLECULE": "OC[C@H]1O[C@@H](c2ccc(Cl)c(Cc3ccc(O[C@H]4CCOC4)cc3)c2)[C@H](O)[C@@H](O)[C@@H]1O",
    "PROPERTY LABEL": "ΔTm",
    "RECORDED VALUE": -1.72
  },
  {
    "MOLECULE": "NC(=O)c1ccc(Oc2ccc(C(N)=O)cc2)cc1",
    "PROPERTY LABEL": "ΔTm",
    "RECORDED VALUE": -1.15
  },
  {
    "MOLECULE": "CC(C)(F)C[C@H](N[C@@H](c1ccc(-c2ccc(S(C)(=O)=O)cc2)cc1)C(F)(F)F)C(=O)NC1(C#N)CC1",
    "PROPERTY LABEL": "ΔTm",
    "RECORDED VALUE": -0.27
  },
  {
    "MOLECULE": "N#Cc1ccc(-c2csc(NN=C3CCCC3)n2)cc1",
    "PROPERTY LABEL": "ΔTm",
    "RECORDED VALUE": -0.22
  },
  {
    "MOLECULE": "Cc1ccc2[nH]c3c(c2c1)CCCC3C(N)=O (stereo not drawn)",
    "PROPERTY LABEL": "ΔTm",
    "RECORDED VALUE": -2.14
  },
  {
    "MOLECULE": "C=CCc1cccc(CNc2nc3ccccc3n2CCC)c1O",
    "PROPERTY LABEL": "ΔTm",
    "RECORDED VALUE": -1.56
  },
  {
    "MOLECULE": "CN(CCC(Oc1ccc(-c2ccccc2)cc1)c1ccc(F)cc1)CC(=O)O (stereo not drawn)",
    "PROPERTY LABEL": "ΔTm",
    "RECORDED VALUE": -1.88
  },
  {
    "MOLECULE": "CC(C)Cn1c(=O)n(C)c(=O)c2c(C(=O)N3CC[C@@H](O)C3)c(Cc3ccnc4ccccc34)sc21",
    "PROPERTY LABEL": "ΔTm",
    "RECORDED VALUE": -0.87
  },
  {
    "MOLECULE": "Cc1ccc(F)c2cc(C(=O)N[C@@H]3CCC[C@H](N4CC[C@H](N(C)S(C)(=O)=O)C4)C3)[nH]c12",
    "PROPERTY LABEL": "ΔTm",
    "RECORDED VALUE": 0.21
  },
  {
    "MOLECULE": "O=C(c1ccc2c(ccn2-c2ccc(F)cc2)c1)N1CC(N2CCN(C(=O)c3nccs3)CC2)C1",
    "PROPERTY LABEL": "ΔTm",
    "RECORDED VALUE": -3.69
  },
  {
    "MOLECULE": "CCn1c(=S)[nH]c2cc3c(NCc4ccccc4N4CCC(CO)CC4)ncnc3cc21",
    "PROPERTY LABEL": "ΔTm",
    "RECORDED VALUE": -1.92
  },
  {
    "MOLECULE": "Nc1ccccc1NC(=O)c1ccc(CNc2nccc(-c3cccnc3)n2)cc1",
    "PROPERTY LABEL": "ΔTm",
    "RECORDED VALUE": 5.93
  },
  {
    "MOLECULE": "O=C(O)CCNc1cc(N2CCc3ccccc3CC2)nc(-c2cccnc2)n1",
    "PROPERTY LABEL": "ΔTm",
    "RECORDED VALUE": 2.29
  },
  {
    "MOLECULE": "Cc1ccc2c(c1)nc(/C=C/c1cccc3cccnc13)n2-c1cccc(OCCCN2CCN(C)CC2)c1",
    "PROPERTY LABEL": "ΔTm",
    "RECORDED VALUE": -2.49
  },
  {
    "MOLECULE": "COc1cc2c(cc1-c1c(C)noc1C)[nH]c1nc(C)nc(Nc3cc(C4CC4)nn3C)c12",
    "PROPERTY LABEL": "ΔTm",
    "RECORDED VALUE": -0.72
  },
  {
    "MOLECULE": "CC(=Cc1cc(C)ccc1C=C(C)C(=O)NC(=N)N)C(=O)N=C(N)N",
    "PROPERTY LABEL": "ΔTm",
    "RECORDED VALUE": -2.39
  },
  {
    "MOLECULE": "Cc1ccc(NC2=CC(=O)c3sc(C)nc3C2=O)cc1",
    "PROPERTY LABEL": "ΔTm",
    "RECORDED VALUE": -0.65
  },
  {
    "MOLECULE": "CN(CCCN1c2ccccc2CCc2ccccc21)CC(=O)c1ccc(Cl)cc1",
    "PROPERTY LABEL": "ΔTm",
    "RECORDED VALUE": -1.35
  },
  {
    "MOLECULE": "N#C[C@@H]1C[C@@H]2C[C@@H]2N1C(=O)[C@@H](N)C12CC3CC(CC(O)(C3)C1)C2",
    "PROPERTY LABEL": "ΔTm",
    "RECORDED VALUE": -2.27
  },
  {
    "MOLECULE": "CS(=O)(=O)c1ccc(-c2cnc(NCc3ccco3)n3cnnc23)cc1",
    "PROPERTY LABEL": "ΔTm",
    "RECORDED VALUE": 0.67
  }
]

* * *

Readings of ΔTm for the listed molecules
- TARGET OR SYSTEM: Mitogen-activated protein kinase 1 (Homo sapiens) (UniProt P28482)
- Sequence (P28482 whole entry): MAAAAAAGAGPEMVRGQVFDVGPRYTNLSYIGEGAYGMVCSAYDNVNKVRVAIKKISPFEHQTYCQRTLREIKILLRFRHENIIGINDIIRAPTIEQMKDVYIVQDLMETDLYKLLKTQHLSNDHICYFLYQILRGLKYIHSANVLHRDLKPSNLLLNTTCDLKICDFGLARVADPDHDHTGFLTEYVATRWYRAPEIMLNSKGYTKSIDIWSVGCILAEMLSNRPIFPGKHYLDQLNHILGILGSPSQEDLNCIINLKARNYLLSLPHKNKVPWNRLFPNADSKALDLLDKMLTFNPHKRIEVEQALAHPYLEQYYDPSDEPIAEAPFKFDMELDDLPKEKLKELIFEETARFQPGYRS
- CONDITION: Compound concentration 20.0 uM
- Description: Thermal Shift Assay. Domain: start/stop: M1-S360
Residues, ends and D or L forms follow the SMILES beside them. *: point of attachment. Cbz = O=C(OCc1ccccc1)*; CH2F = FC*

[
  {
    "MOLECULE": "CCOc1ccc(S(=O)(=O)Nc2ccc(Cl)cc2C#Cc2cnc(C(=O)O)cc2OC)c2ncccc12",
    "ΔTm / °C": -0.03
  },
  {
    "MOLECULE": "CCCC1O[C@@H]2C[C@H]3[C@@H]4CCC5=CC(=O)C=C[C@]5(C)[C@H]4[C@@H](O)C[C@]3(C)[C@]2(C(=O)CO)O1 (stereo not given in full)",
    "ΔTm / °C": -0.27
  },
  {
    "MOLECULE": "N#Cc1cccnc1N1CCN(C(=O)c2cccc(Cc3n[nH]c(=O)c4ccccc34)c2)CC1",
    "ΔTm / °C": 0.24
  },
  {
    "MOLECULE": "O=C(O)CCNc1cc(N2CCc3ccccc3CC2)nc(-c2cccnc2)n1",
    "ΔTm / °C": -0.29
  },
  {
    "MOLECULE": "CS(=O)(=O)N1CCN(C(=O)c2cnc3ccc(Cl)cc3c2-c2ccc(C3(C#N)CC3)cc2)CC1",
    "ΔTm / °C": 0.97
  },
  {
    "MOLECULE": "COc1ccc(-c2ccc(-c3cn(C(=O)N4CCCCC4c4ccccc4)nn3)cc2)cc1 (stereo not given)",
    "ΔTm / °C": -0.45
  },
  {
    "MOLECULE": "NC(=O)c1cnc(N[C@@H]2CCCC[C@@H]2N)nc1Nc1cccc(-n2nccn2)c1",
    "ΔTm / °C": 4.33
  },
  {
    "MOLECULE": "COC(=O)CC[C@H](NC(=O)[C@H](Cc1c[nH]c2ccccc12)NC(=O)OCc1ccccc1)C(=O)N[C@@H](Cc1cnc[nH]1)C(=O)N[C@@H](CC(=O)OC)C(=O)CF (Cbz-WE(OMe)HD(OMe)-CH2F)",
    "ΔTm / °C": -0.1
  },
  {
    "MOLECULE": "CNCCN(C)Cc1cn[nH]c1-c1ccc(OC2CC(OCCC3CCOCC3)C2)cc1 (stereo not given)",
    "ΔTm / °C": 0.05
  },
  {
    "MOLECULE": "CCC(NC(=O)C(CC(C)C)NC(=O)OCc1ccccc1)C(=O)C(=O)NCCCN1CCOCC1 (stereo not given)",
    "ΔTm / °C": -0.33
  },
  {
    "MOLECULE": "CC(C)[C@H](NC(=O)OCc1ccccc1)C(=O)NC(CC(=O)O)C(=O)CF (stereo not given in full)",
    "ΔTm / °C": -0.08
  },
  {
    "MOLECULE": "CS(=O)(=O)c1ccc(-c2cnc(NCc3ccco3)n3cnnc23)cc1",
    "ΔTm / °C": 0.02
  },
  {
    "MOLECULE": "Cc1cc(C(=O)N2CCN(C3CN(C(=O)c4ccc(-c5ccccc5)cc4)C3)CC2)no1",
    "ΔTm / °C": 0.28
  },
  {
    "MOLECULE": "Nc1ccc(-c2cccs2)cc1NC(=O)c1ccc2nc(N3CCNCC3)ccc2c1",
    "ΔTm / °C": -0.25
  },
  {
    "MOLECULE": "COCCOCCn1nc2c(c1C)-c1c(Cl)ccc3c1c(C)c(C(=O)O)n3CCCOc1cc(cc3c(F)c(Cl)ccc13)CCc1cc(nn1C)CSC2",
    "ΔTm / °C": -1.31
  },
  {
    "MOLECULE": "CCCOc1cccc(Oc2cc3c(cc2NS(=O)(=O)c2cccc(C(=O)NCCOCCOCCOCC(=O)N[C@H](C(=O)N4C[C@H](O)C[C@H]4C(=O)NCc4ccc(-c5scnc5C)cc4)C(C)(C)C)c2)n(C)c(=O)n3C)c1",
    "ΔTm / °C": 0
  },
  {
    "MOLECULE": "N=C(N)SCc1ccc(CN2C(=O)C(=O)c3cc(Br)cc(Br)c32)cc1",
    "ΔTm / °C": -1.76
  },
  {
    "MOLECULE": "COc1ccc(CNc2nc(N3CCC[C@H]3CO)ncc2C(=O)NCc2ncccn2)cc1Cl",
    "ΔTm / °C": 0.04
  },
  {
    "MOLECULE": "CC(C)N(C[C@H]1O[C@@H](n2cnc3c(N)ncnc32)[C@H](O)[C@@H]1O)[C@H]1C[C@@H](CCc2nc3cc(C(C)(C)C)ccc3[nH]2)C1",
    "ΔTm / °C": -0.02
  },
  {
    "MOLECULE": "Cc1nn(CC(F)(F)F)cc1Nc1ncc(Br)c(NCc2ccc(S(N)(=O)=O)cc2)n1",
    "ΔTm / °C": 2.84
  },
  {
    "MOLECULE": "Cc1nc(-c2cnn(C)c2-c2ccc(C(F)(F)F)cn2)c2c(N3CCC3)ncnn12",
    "ΔTm / °C": 0.1
  },
  {
    "MOLECULE": "O=C(NCc1ncccc1F)c1coc(CCNCCc2nc3ccccc3[nH]2)n1",
    "ΔTm / °C": -0.05
  },
  {
    "MOLECULE": "COC1CCN(C(=O)c2cc(Cc3n[nH]c(=O)c4ccccc34)ccc2F)CC1",
    "ΔTm / °C": 0.51
  },
  {
    "MOLECULE": "COc1cc2c(cc1OC)[C@H]1C[C@@H](O)[C@H](CC(C)C)CN1CC2",
    "ΔTm / °C": 0.59
  },
  {
    "MOLECULE": "CS(=O)(=O)c1ncn2c(NCc3c(F)ccc4c3CCO4)ncc(-c3ccc(C4CC4)nc3)c12",
    "ΔTm / °C": 0.08
  }
]
